Reported values of melting point for individual entries

Known results for compounds:
>  <record.smiles>
COC[C@@H]1CCCN1S(=O)(=O)c1ccc2c(c1)C(=O)C(=O)N2Cc1ccc(OCc2ccccc2)cc1

>  <melting point>
73 to 74 °C

$$$$
>  <record.smiles>
O=C1C(=O)N(Cc2ccc(I)cc2)c2ccc(S(=O)(=O)N3CCC[C@H]3COc3ccccc3)cc21

>  <melting point>
88 to 90 °C

$$$$
>  <record.smiles>
O=C1C(=O)N(Cc2ccc(OCc3ccccc3)cc2)c2ccc(S(=O)(=O)N3CCC[C@H]3COc3ccccc3)cc21

>  <melting point>
69 to 70 °C

$$$$

Req: I would be grateful if you could share the reported melting point for C[Si](C)(C)c1ccc(CN2C(=O)C(=O)c3cc(S(=O)(=O)N4CCC[C@H]4COc4ccccc4)ccc32)cc1 .
Resp: 128 to 130 °C (dec.)

Req: I would be grateful if you could share the reported melting point for COC[C@@H]1CCCN1S(=O)(=O)c1ccc2c(c1)C(=O)C(=O)N2C .
Resp: 143 to 144 °C

###

Reported values of Ki for individual entries
# study.target: recombinant human caspase 3 (Homo sapiens, UniProt P42574)
# Construct: Recombinant full-length human caspase-3 was purified as described previously [21b]
# Sequence (P42574 29-175 limits assumed): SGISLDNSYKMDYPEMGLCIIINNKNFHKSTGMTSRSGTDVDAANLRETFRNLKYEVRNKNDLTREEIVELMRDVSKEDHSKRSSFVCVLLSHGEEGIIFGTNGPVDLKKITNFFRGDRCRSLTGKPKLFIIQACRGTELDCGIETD
# Sequence (P42574 176-277 limits assumed): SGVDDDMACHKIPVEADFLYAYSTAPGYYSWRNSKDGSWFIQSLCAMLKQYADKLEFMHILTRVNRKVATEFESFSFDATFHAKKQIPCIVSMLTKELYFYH
# protocol.summary: Caspase inhibition assay, standard fluorometric assay with Ac-DEVD-AMC
# reported.conditions: Ki(app) = IC50/(1 + [S]/KM), [S] = 10 μM Ac-DEVD-AMC, 37° C., pH 7.5
# Method: The inhibition of recombinant human caspase 3 by twentythree isatin sulfonamides (twenty Recombinant full-length human caspase-3 was purified as described previously [21b]. […] Enzyme assays were performed in a 200 μl volume at 37° C. in reaction buffer containing 0.1% CHAPS, 50 mM KCl, 5 mM β-mercaptoethanol, 25 mM HEPES (pH 7.5) and nonradioactive isatins in DMSO each in single doses (end concentrations 500 μM, 50 μM, 5 μM, 500 nM, 50 nM, 5 nM, 500 pM, 50 pM or 5 pM). […]
Write the value in nM as a bare number.

>  <molecule>
COC[C@@H]1CCCN1S(=O)(=O)c1ccc2c(c1)C(=O)C(=O)N2Cc1ccc(OC)cc1 [IV]

>  <Ki (nM)>
9

$$$$
>  <molecule>
C[Si](C)(C)c1ccc(CN2C(=O)C(=O)c3cc(S(=O)(=O)N4CCC[C@H]4COc4ccccc4)ccc32)cc1 [1b]

>  <Ki (nM)>
0.7

$$$$
>  <molecule>
COC[C@@H]1CCCN1S(=O)(=O)c1ccc2c(c1)C(=O)C(=O)N2 [IIa, reference compound]

>  <Ki (nM)>
77

$$$$

Req: I would be grateful if you could share the reported Ki for COC[C@@H]1CCCN1S(=O)(=O)c1ccc2c(c1)C(=O)C(=O)N2C [II] .
Resp: 2

Req: I would be grateful if you could share the reported Ki for COC[C@@H]1CCCN1S(=O)(=O)c1ccc2c(c1)C(=O)C(=O)N2Cc1ccc(OCCOS(=O)(=O)c2ccc(C)cc2)cc1 [VIa] .
Resp: 2

Req: I would be grateful if you could share the reported Ki for COC[C@@H]1CCCN1S(=O)(=O)c1ccc2c(c1)C(=O)C(=O)N2Cc1ccc(OCCBr)cc1 [VIaa] .
Resp: 13
